Kindly supply the reported Screen Rabbit/No Protein values for the records listed here.
# Tested on: rabbit vWF A1 domain (SEQ ID NO 6)
# Sequence (as listed by the source): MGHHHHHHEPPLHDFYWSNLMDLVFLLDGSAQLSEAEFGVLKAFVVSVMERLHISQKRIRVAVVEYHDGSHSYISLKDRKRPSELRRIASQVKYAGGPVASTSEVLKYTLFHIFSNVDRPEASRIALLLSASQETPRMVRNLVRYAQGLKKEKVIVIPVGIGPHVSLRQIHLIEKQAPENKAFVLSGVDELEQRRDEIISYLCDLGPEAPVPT
# assay: 3-point dot blot screen, rabbit vWF A1 domain
# Format: binding
# cond: 3-point dot blot screen, 20 nM rabbit vWF A1 domain; ratio of fraction of aptamer bound with target protein to fraction bound without protein
Give bare numbers.

Example cases with answers are listed next.
molecule	Screen Rabbit/No Protein
AMX236.C1: DNA SELEX 2 aptamer clone (nucleic acid, DNA, backbone not given here, DNA SELEX 2 aptamer clone) CTACCTACGATCTGACTAGCGGAATGAGAATGTTGGTGGATTGCTCAGGTCTGCTGGCTGCTTACTCTCATGTAGTTCC	3.28
AMX237.D11: DNA SELEX 2 aptamer clone (nucleic acid, DNA, backbone not given here, DNA SELEX 2 aptamer clone) DNA: CTACCTACGATCTGACTAGCTCCAGTGTTTTATATAATAACCGTGCGGTGCCTCCGTGATGCTTACTCTCATGTAGTTCC	1.17
AMX237.C1: DNA SELEX 2 aptamer clone (nucleic acid, DNA, backbone not given here, DNA SELEX 2 aptamer clone) DNA: CTACCTACGATCTGACTAGCGGAATGAGGATGCTGGTGGATTGCTCAGGTCTGCTGGCTGCTTACTCTCATGTAGTTCC	3.47

Now let's try a different one.
Name the recorded Screen Rabbit/No Protein for AMX238.F2: DNA SELEX 2 aptamer clone (nucleic acid, DNA, backbone not given here, DNA SELEX 2 aptamer clone) DNA: CTACCTACGATCTGACTAGCATGCAGTGCCCATTCTAGGCCGTGCGGTGCCTCCGTCATGCTTACTCTCATGTAGTTCC . 2.76

FYI, the data here is from patent US7998940B2.
